system under test: MUP (Mus musculus, UniProt P11588)
Sequence (P11588 19-180): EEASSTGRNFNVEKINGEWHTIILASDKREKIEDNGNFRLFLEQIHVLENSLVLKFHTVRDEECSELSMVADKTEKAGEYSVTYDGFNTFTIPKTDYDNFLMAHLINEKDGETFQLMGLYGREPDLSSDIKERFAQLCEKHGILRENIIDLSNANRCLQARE
experimental endpoint: Kd (nM)

A = COc1nccnc1C(C)C
B = COc1nccnc1CC(C)C
[in] Compare reported Kd values for A and B . Which is lower? Bench note: the answer is the label of the chosen record.
[out] B
(B: 80 nM, A: 560 nM)
